Experiment: Cytotoxicity against Vero cells
Format: cell-based
Conditions: chlorocebus sabaeus

- Compound: "BP(=O)(O)COCCn1cnc2c(N)ncnc21"
  CC50: "> 200 µM"
- Compound: "C[C@H](Cn1cnc2c(N)ncnc21)OC[PH](=O)O"
  CC50: "> 200 µM"
- Compound: "NC(=O)c1ncn([C@@H]2O[C@H](CO)[C@@H](O)[C@H]2O)n1"
  CC50: "> 500 µM"
- Compound: "O=c1[nH]c(=O)n([C@H]2C[C@H](O)[C@@H](CO)O2)cc1/C=C/Br"
  CC50: "> 500 µM"
- Compound: "BP(=O)(O)CO[C@H](C)Cn1cnc2c(N)ncnc21"
  CC50: "> 200 µM"
- Compound: "Nc1ncnc2c1ncn2C[C@H](O)CO [(S)-DHPA]"
  CC50: "> 500 µM"
- Compound: "Nc1ncnc2c1ncn2CCOC[PH](=O)O"
  CC50: "> 200 µM"

###

Test system: Punta Toro virus
Assay: Antiviral activity against Punta Toro virus in Vero cells
Assay type: functional, organism-based
pEC50: −log10 of the molar value.
Measurement type: pEC50

- Compound: "Nc1ncnc2c1ncn2CCOC[PH](=O)O"
  Value measured: "< 3.70"
- Compound: "BP(=O)(O)CO[C@H](C)Cn1cnc2c(N)ncnc21"
  Value measured: "< 3.70"
- Compound: "BP(=O)(O)COCCn1cnc2c(N)ncnc21"
  Value measured: "< 3.70"
- Compound: "NC(=O)c1ncn([C@@H]2O[C@H](CO)[C@@H](O)[C@H]2O)n1"
  Value measured: 4.00
- Compound: "C[C@H](Cn1cnc2c(N)ncnc21)OC[PH](=O)O"
  Value measured: "< 3.70"
- Compound: "O=c1[nH]c(=O)n([C@H]2C[C@H](O)[C@@H](CO)O2)cc1/C=C/Br"
  Value measured: "< 3.30"
- Compound: "Nc1ncnc2c1ncn2C[C@H](O)CO [(S)-DHPA]"
  Value measured: "< 3.30"

###

CC50 for assorted compounds
Test: Cytotoxicity against HEL cells
Type: cell-based
Details: human

- Chemical structure: "C[C@H](Cn1cnc2c(N)ncnc21)OC[PH](=O)O"
  CC50: "> 200 µM"
- Chemical structure: "NC(=O)c1ncn([C@@H]2O[C@H](CO)[C@@H](O)[C@H]2O)n1"
  CC50: "> 500 µM"
- Chemical structure: "Nc1nc2c(ncn2COCCO)c(=O)[nH]1"
  CC50: "> 500 µM"
- Chemical structure: "BP(=O)(O)COCCn1cnc2c(N)ncnc21"
  CC50: "> 200 µM"
- Chemical structure: "Nc1ncnc2c1ncn2CCOC[PH](=O)O"
  CC50: "> 200 µM"
- Chemical structure: "O=c1[nH]c(=O)n([C@H]2C[C@H](O)[C@@H](CO)O2)cc1/C=C/Br"
  CC50: "> 500 µM"
- Chemical structure: "Nc1nc2c(ncn2COC(CO)CO)c(=O)[nH]1"
  CC50: "> 100 µM"
- Chemical structure: "BP(=O)(O)CO[C@H](C)Cn1cnc2c(N)ncnc21"
  CC50: "> 200 µM"

###

half-life for assorted molecules
Experiment: Stability in culture medium (RPMI+FBS)
Type: physicochemical
Details: bovine
Measurement type: half-life

- Molecule: "BP(=O)(O)COCCn1cnc2c(N)ncnc21"
  Measurement type: "half-life"
  Value measured: "5.3 h"
- Molecule: "C[C@H](Cn1cnc2c(N)ncnc21)OCP(=O)(O)O [TENOFOVIR ANHYDROUS]"
  Measurement type: "half-life"
  Value measured: "> 72 h"
- Molecule: "Nc1ncnc2c1ncn2CCOC[PH](=O)O"
  Measurement type: "half-life"
  Value measured: "> 72 h"
- Molecule: "Nc1ncnc2c1ncn2CCOCP(=O)(O)O"
  Measurement type: "half-life"
  Value measured: "> 72 h"
- Molecule: "C[C@H](Cn1cnc2c(N)ncnc21)OC[PH](=O)O"
  Measurement type: "half-life"
  Value measured: "> 72 h"
- Molecule: "BP(=O)(O)CO[C@H](C)Cn1cnc2c(N)ncnc21"
  Measurement type: "half-life"
  Value measured: "1.3 h"
